- Tested on: NCI-H522 lung
- Protocol description: NCI tumour cell line growth inhibition, 48 h
TGI for assorted molecules
Readout kind: TGI

- Cc1nc2nnc(CCCCCCCCc3nnc4nc(C)[nH]n34)n2[nH]1: > 100 µM
- O=C(c1ccccc1)c1nn(-c2cccc(Cl)c2)c2nc3nc(-c4ccccc4)cc(=O)n3nc12: > 25 µM
- O=[N+]([O-])C(/C=C(\Cl)[N+](=O)[O-])=C(N1CCOCC1)N1CCOCC1: > 100 µM

---

- Test system: SK-MEL-2 melanoma
- Protocol description: NCI tumour cell line growth inhibition, 48 h
Readout kind: TGI

- NC1=Nc2ncccc2C(=O)NN1: > 10 µM
- O=C(Cn1c(=O)oc2ccccc21)N(c1ccccc1)c1ccccc1: > 100 µM
- CCOC(=O)C(Oc1ccc(OC)c2c1C(=O)CCC2)c1ccccc1 (stereo not drawn): > 100 µM

---

- Tested on: HOP-62 NSCLC
- Protocol description: NCI tumour cell line growth inhibition, 48 h
Readout kind: TGI

- CCn1c(=O)nc2n(-c3ccc(SC)cc3)c3ccccc3nc-2c1=O: > 100 µM
- COc1cc(OC)c(/C=C/S(=O)(=O)Cc2ccc(OC)c(N)n2)c(OC)c1: > 100 µM
- Cc1cc2c3ccccc3n3c2c2c1OC1(C)CCC(C2C1)C3(C)C (stereo unspecified): > 25 µM
- CCc1nnc2sc(-c3ccc(-c4ccccc4[N+](=O)[O-])o3)nn12: > 100 µM
- N#C/C(=C/c1ccc([N+](=O)[O-])o1)c1ccccc1: > 100 µM
- COC1=CC(=O)[C@@]2(C)C(C)[C@H](c3ccccc3)[C@H]2C1=O (stereo partly specified): > 100 µM

---

- Tested on: PC-3 prostate
- Protocol description: NCI tumour cell line growth inhibition, 48 h
Readout kind: TGI

• COc1ccc(/C=N/n2c(-c3ccccc3)n[nH]c2=O)c(OC)c1 = > 100 µM
• CN(N=O)c1ccc(/C=C/c2ccnc3ccccc23)cc1 = > 100 µM
• N#Cc1ccc2c(-c3ccnc(NC4CC4)n3)c(-c3ccc(F)cc3)nn2c1 = > 25 µM

---

- System: OVCAR-4 ovarian
- Protocol description: NCI tumour cell line growth inhibition, 48 h
Readout kind: TGI

• Cc1ccc(-c2ccc3c(c2)Sc2ccccc2O3)n1C = > 100 µM
• COc1ccc2cc(CNCCCCCCNC(=O)Nc3cccc4ccccc34)ccc2c1 = > 100 µM
• C=CCCCCCCCCCOC1C=CC(O)C(CO)O1 (stereo not given) = > 100 µM
• CCCC(O)c1ccc2[nH]c3c(C)cc([N+](=O)[O-])c(C)c3c2c1 (stereo not given) = > 100 µM
• CNC(=O)c1sc(-n2cnc3cc(OC)c(OC)cc32)cc1OCc1ccccc1C(F)(F)F = > 25 µM

---

- Tested on: MDA-MB-435
- Protocol description: NCI tumour cell line growth inhibition, 48 h
Readout kind: TGI

- COc1ccc2c(c1O)[C@@]13CCCC=C1[C@@H](C2)N(C)CC3: > 100 µM
- C[N+]1(CC[N+]2(C)CCCC2c2cccnc2)CCCC1c1cccnc1 (stereo not drawn): > 100 µM
- ClC/C=C/CSc1ncnc2nc[nH]c12: > 100 µM
- COc1cc(/C=N\Nc2ccccc2)ccc1OC(=O)c1ccccc1: > 100 µM
- Cc1ccc2c(c1)CC1(Cc3cc(C)ccc3C1=O)C2=O: > 100 µM
- NC1=Nc2ncccc2C(=O)NN1: > 10 µM
- COC(=O)c1sc(-n2cnc3cc(OC)c(OC)cc32)cc1OCc1ccccc1C(F)(F)F: > 25 µM
- CNC(=O)OC1/C(C)=C\C(C)C(O)C(OC)CC(C)CC2=C(OC)C(=O)C=C(C2=O)N(C)C(=O)/C(C)=C/C=C\C1OC (stereo not drawn): > 100 µM
- O=C(NCCN1CCOCC1)c1cc2c(Oc3ccc(NC(=O)C4(C(=O)Nc5ccc(F)cc5)CC4)cc3)ccnc2[nH]1: 23.3 µM
- NP1(Oc2ccc(F)cc2)=NP(N)(Oc2ccc(F)cc2)=NP(Oc2ccc(F)cc2)(Oc2ccc(F)cc2)=N1 (stereo not drawn): 19.3 µM
- CN(C)CCCn1c(-c2ccc(Br)cc2)csc1=Nc1ccccc1: 61.5 µM
- Cc1cccc(NC(=S)NNC(=O)c2cc(-c3ccccc3)nc3ccccc23)c1: 85.7 µM
- CCc1ccc([OH2+])c(C(=O)[O-])c1.CCc1ccc([OH2+])c(C(=O)[O-])c1.CCc1ccc([OH2+])c(C(=O)[O-])c1.CCc1ccc([OH2+])c(C(=O)[O-])c1.[Cu+2].[Cu+2]: > 100 µM

---

- Tested on: SF-295 CNS
- Protocol description: NCI tumour cell line growth inhibition, 48 h
Readout kind: TGI

* O=C1OCc2nc3c(c(-c4ccccc4C(F)(F)F)c21)C(=O)OC3 | > 100 µM
* CCOc1c2c(cc3c1C(=O)c1c(OC)cccc1C3=O)C=C(OC)CC2 | > 25 µM
* COc1ccc2c(Cl)cc(NC(=S)Nc3ccccc3)nc2c1 | > 100 µM
* CC(C)(c1ccc(C=O)o1)c1ccc(C(C)(C)c2ccc(C=O)o2)o1 | > 100 µM
* CN(C)NC(=O)NC12CC3CC(CC(C3)C1)C2 | > 100 µM

---

TGI values for the molecules below.
- Tested on: SNB-75 CNS
- Protocol description: NCI tumour cell line growth inhibition, 48 h
Readout kind: TGI

* CCCCCCCC(=O)NC(C)(C)C(=O)NCC(=O)NC(CC(C)C)C(=O)NC(C)(C)C(=O)NCC(=O)NCC(=O)NC(CC(C)C)C(=O)NC(C)(C)C(=O)NCC(=O)NC(C(=O)NC(CO)CC(C)C)C(C)CC (configuration not stated) | 7.28 µM
* COc1ccc(/C=N/n2c(-c3ccccc3)n[nH]c2=O)c(OC)c1 | > 73.2 µM
* N#Cc1c(N)oc2cc3c(C#N)c(N)oc3cc12 | > 100 µM
* CN(CCNC(=O)c1nn(C)c2c1Cc1ccccc1-2)CCNC(=O)c1nn(C)c2c1Cc1ccccc1-2 | 28.4 µM
* O=C(O)CN(CCN(CC(=O)O)CC(=O)O)CC(=O)O.[Cu+2].[Na+] | > 100 µM
* CC1=C(\C=C/C(C)=C/C=C/C(C)=C/C=C/C=C(C)\C=C\C=C(C)/C=C/C2=C(C)CCCC2(C)C)C(C)(C)CCC1 | > 100 µM
* ClC/C=C/CSc1ncnc2nc[nH]c12 | > 100 µM
* CSC(SC)=C(C#N)C(=O)Nc1ccc(Cl)cc1 | > 100 µM
* Clc1ccc(Cc2nc3cc(Cl)c(Cl)cc3n2CC2CCCN3CCCCC23)cc1 (configuration not stated) | 21.6 µM
* Cc1ccc([N+](=O)[O-])cc1S(=O)(=O)Nc1ccc(C2=NN(S(=O)(=O)c3cc([N+](=O)[O-])ccc3C)C(c3ccccc3O)C2)cc1 (configuration not stated) | > 100 µM
* O=S(c1ccc(O)cc1)c1ccc(O)cc1 | > 100 µM
* CN(C)NC(=O)NC12CC3CC(CC(C3)C1)C2 | > 100 µM

---

- Tested on: SK-MEL-5 melanoma
- Protocol description: NCI tumour cell line growth inhibition, 48 h
Each record here notes measured TGI.
Readout kind: TGI

- CCOc1c2c(cc3c1C(=O)c1c(OC)cccc1C3=O)C=C(OC)CC2: > 25 µM
- O=[N+]([O-])c1ccc(CSC2=C(c3ccc(Cl)cc3)S/C(=C3\SC(SCc4ccc([N+](=O)[O-])cc4)=C(c4ccc(Cl)cc4)S3)S2)cc1: > 100 µM
- CCCC(O)c1ccc2[nH]c3c(C)cc([N+](=O)[O-])c(C)c3c2c1 (centres undefined): > 100 µM
- O=C(/C=C/c1ccco1)Nc1ncc(Cc2cc(Cl)ccc2Cl)s1: > 64.8 µM
- Cc1nc2ccccc2c(=O)n1/N=C(\N=Nc1cc(Cl)ccc1Cl)c1ccc(N(C)C)cc1: > 100 µM
- NS(=O)(=O)c1cccc(Nc2cc(-c3ccc(F)cc3)[nH]n2)c1: > 25 µM
- CC(C)C(Sc1nc(N)nc2nc[nH]c12)C(=O)O (centres undefined): > 100 µM
- N#C/C(=C/c1ccc([N+](=O)[O-])o1)c1ccccc1: > 100 µM
- O=C1OC(c2ccccc2)=N/C1=C\c1ccccc1: > 100 µM

---

- Test system: CCRF-CEM leukemia
- Protocol description: NCI tumour cell line growth inhibition, 48 h
Readout kind: TGI

* CCCCCCCC(=O)NC(C)(C)C(=O)NCC(=O)NC(CC(C)C)C(=O)NC(C)(C)C(=O)NCC(=O)NCC(=O)NC(CC(C)C)C(=O)NC(C)(C)C(=O)NCC(=O)NC(C(=O)NC(CO)CC(C)C)C(C)CC (stereo not drawn) | 11.7 µM
* COC1=CC(=O)C2(C=C1OC)OC[C@H]1Oc3c(ccc4c3C=CC(C)(C)O4)C(=O)[C@H]12 (stereo partly drawn) | > 100 µM
* C(/C=C(\Nc1ccccc1)c1ccc2ccccc2c1)=Nc1ccccc1 | 2.85 µM
* Cc1c2ccncc2c(C)c2c1[nH]c1ccc(O)cc12 | 0.31 µg/mL
* C/C(=C\COP(=O)(O)OP(=O)(O)O)CC/C=C(\C)CNc1c(F)c(F)c(F)c(F)c1F | 1.26 µM
* O=C(NOCCO)c1ccc2cncn2c1Nc1ccc(I)cc1F | > 100 µM
* CNC(=O)c1sc(-n2cnc3cc(OC)c(OC)cc32)cc1OCc1ccccc1C(F)(F)F | > 25 µM
* CCN(CC)c1ccc(N=Nc2ccc(-c3nc4cccnc4s3)cc2)cc1 | > 100 µM
